# measuredOn: prothrombin (factor II) (Homo sapiens)
# measurementProtocol: Prothrombin activation by factor Xa
# Type: biochemical
# details: Xa formed from tissue factor, factor VII and factor X; FIG. 17B; read-out: IC50, factor II activated by Xa
pIC50: −log10 of the molar value.
assayEndpoint: pIC50

Look up pIC50 with prothrombin (factor II) (Homo sapiens) for this substance: 36-1: synthetic rabbit RNIP-derived fragment, amino acids 135-166 of SEQ ID NO:4 (GLRKRLRKFRNKIKEKLKKIGQKIQGLLPKLA)
> 6.52
